# Test system: JNK3;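 also: KINOMEscan kinase panel screen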
# Construct: gene MAPK10
# stated.conditions: concentration: 1 μM,replicates: in singlicate; n = 1
Recorded %Inh split into classes low class (below 2%), middle class (2% to below 50%), high class (50% or more)

See these solved cases before continuing.
INSERT INTO measurements (compound, class_name) VALUES
  ('COc1ccc(C[C@@H](CN)NC(=O)c2cc(Br)c(-c3ccnc4[nH]ccc34)s2)cc1.Cl.Cl [GSK1389063]', 'middle class'),
  ('O=C(NCCNc1ccnc(NCc2ccc(F)cc2)n1)c1cc2ccccc2s1 [GSK1379944]', 'middle class'),
  ('CN(C)CC(O)COc1ccc(Nc2nccc(-c3cnn4nc(N5CCOCC5)ccc34)n2)cc1 (centres unmarked) [GW767488]', 'high class'),
  ('CNC(=O)c1ccccc1Sc1ccc2c(/C=C/c3ccccn3)n[nH]c2c1', 'low class'),
  ('NC(=O)c1cc(-c2ccccc2)cc2c(C3CCNCC3)c[nH]c12 [GSK301362]', 'middle class');

The entry to classify is `O=C(NCCCN1CCOC1=O)c1cnc(NCc2cc(Cl)ccc2Cl)nc1NC1CCCC1` ; which class holds it?
low class

The entry to classify is `Cc1cc2cn[nH]c2cc1-c1cccc2c(N)c(C(N)=O)nnc12` ; which class holds it?
middle class
